Target: T1, recombinant human GPC2-His protein (human, UniProt Q8N158 24-554, limits assumed)
T1 construct: Bought protein; The SPR paragraph gives no catalogue number for GPC2-His; also called recombinant Human Glypican 2 Protein; recombinant human GPC2 protein; not shown: His tag
T1 sequence (looked up): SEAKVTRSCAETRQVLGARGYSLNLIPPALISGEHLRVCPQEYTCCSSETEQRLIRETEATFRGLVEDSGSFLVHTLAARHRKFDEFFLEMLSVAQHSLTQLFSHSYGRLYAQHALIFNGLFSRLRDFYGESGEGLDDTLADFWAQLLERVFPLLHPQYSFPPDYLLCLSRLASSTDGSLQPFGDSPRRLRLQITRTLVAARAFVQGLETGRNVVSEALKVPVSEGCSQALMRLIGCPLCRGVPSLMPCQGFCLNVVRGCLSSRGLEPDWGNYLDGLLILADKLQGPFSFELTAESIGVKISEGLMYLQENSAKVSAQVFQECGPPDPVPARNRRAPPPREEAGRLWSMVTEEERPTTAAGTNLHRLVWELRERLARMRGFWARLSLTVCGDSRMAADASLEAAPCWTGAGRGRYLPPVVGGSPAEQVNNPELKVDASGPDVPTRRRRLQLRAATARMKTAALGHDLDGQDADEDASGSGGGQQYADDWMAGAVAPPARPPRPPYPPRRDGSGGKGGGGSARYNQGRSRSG
Experiment: SPR, Biacore T200, GPC2-His amine-coupled to CM5 chip, VHH-hIgG1Fc as analyte, 1:1 model
Catalogue of pKd readings, one per entry.
By convention, pKd is the negative base-10 log of a molar concentration.

Consider the reported pKd for these binders:
binder="AS79236VH6-hIgG1Fc (Fc fusion, also called anti-GPC2 VHH-hIgG1Fc; not shown: human IgG1 Fc fragment (hIgG1Fc)) EVQLVESGGGLVQPGGSLRLSCAVSGYTYSSYCMAWFRQAPGKGLEGVASIDAGGRTTYVDSVKGRFTISKDNAKNSLYLQMNSLRAEDTAMYYCAVDVRTRCGGTWDGEAVYFPYWGQGTLVTVSS" metric_name=pKd recorded_result=9.43
binder="AS71529VH6-AS70950VH6-hIgG1Fc (Fc fusion, Two different anti-GPC2 VHH domains in tandem, fused to a human IgG1Fc fragment; also called tandem anti-GPC2 VHH-hIgG1Fc; not shown: human IgG1 Fc fragment (hIgG1Fc)) EVQLVESGGGLVQPGGSLRLSCAVSEYRYSSRYCMGWFRQAPGKGREGVAAIDSNGSADYVDSVKGRFTISKDNSKNTLYLQMNSLRAEDTAMYYCAADHLAYDCYSGATSVFRYWGQGTLVTVSSGGGGSGGGGSGGGGSEVQLVESGGGLVQPGGSLRLSCAISEFTYKNTCVGWFRQAPGKGREGVAAIDSDGNTNYVDSVKGRFTISQDNSKNTVYLQMNSLRAEDTAMYYCAAGAYCGRLLLWIGNYAYWGQGTLVTVSS" metric_name=pKd recorded_result=9.72
binder="AS78117VH4-hIgG1Fc (Fc fusion, also called anti-GPC2 VHH-hIgG1Fc; not shown: human IgG1 Fc fragment (hIgG1Fc)) EVQLVESGGGLVQPGGSLRLSCIVSRYTYATYSMAWFRQAPGKGLEGVSGLDSVGATGYAESVKGRFTISRDNSKNTLYLQMNSLRAEDTAVYYCVVDPASAKVTYGSWSTPSYAYWGQGTLVTVSS" metric_name=pKd recorded_result=9.09
binder="AS70950VH6-hIgG1Fc (Fc fusion, also called anti-GPC2 VHH-hIgG1Fc; not shown: human IgG1 Fc fragment (hIgG1Fc)) EVQLVESGGGLVQPGGSLRLSCAISEFTYKNTCVGWFRQAPGKGREGVAAIDSDGNTNYVDSVKGRFTISQDNSKNTVYLQMNSLRAEDTAMYYCAAGAYCGRLLLWIGNYAYWGQGTLVTVSS" metric_name=pKd recorded_result=9.57

# input # query: pKd of entry AS72669VH6-hIgG1Fc (Fc fusion, also called anti-GPC2 VHH-hIgG1Fc; not shown: human IgG1 Fc fragment (hIgG1Fc)) QVQLVESGGGVVQPGGSLRLSCAASRFTYSSYCMGWIRQAPGKGREGVAIFYTGGGRTYYADSVKGRFTISQDNSKNTLYLQMNSLRAEDTAVYYCVAGFYCSGGYWEGDFGYWGQGTLVTVSS
# output 9.82
